The measurements presented in this section are drawn from patent US9920061B2.

Biological target: glucocerebrosidase (Gcase) (Homo sapiens, UniProt P04062)
Sequence (P04062 40-536): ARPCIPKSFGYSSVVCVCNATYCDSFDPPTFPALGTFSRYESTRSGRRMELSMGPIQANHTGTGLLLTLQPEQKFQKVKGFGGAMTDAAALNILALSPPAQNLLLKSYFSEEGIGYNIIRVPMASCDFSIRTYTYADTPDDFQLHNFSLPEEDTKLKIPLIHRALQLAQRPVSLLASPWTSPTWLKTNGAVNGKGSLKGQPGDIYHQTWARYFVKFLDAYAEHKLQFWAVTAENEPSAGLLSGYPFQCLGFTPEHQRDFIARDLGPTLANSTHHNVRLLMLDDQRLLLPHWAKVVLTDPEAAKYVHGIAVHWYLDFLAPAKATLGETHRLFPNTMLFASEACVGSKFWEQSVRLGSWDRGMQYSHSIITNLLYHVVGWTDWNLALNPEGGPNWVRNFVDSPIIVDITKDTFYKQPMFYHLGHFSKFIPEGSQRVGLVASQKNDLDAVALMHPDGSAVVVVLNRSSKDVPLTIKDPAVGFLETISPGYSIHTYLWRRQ
Experiment: Glucocerebrosidase (Gcase) activation assay, 4-methylumbelliferyl-beta-D-glucopyranoside substrate, with saposin C
Assay type: biochemical
Conditions: test compound at 0.1 μM; read-out: Percent Gcase Activation, 0.1 μM Test Compound
endpoint: activation at 0.1 µM

CCOc1cccc(-c2cc(C)n3cnc(C(=O)NC(C4CC4)C(F)(F)F)c3n2)n1 (stereo not drawn); > 20%
Cc1cc(-c2ccc(C#N)s2)nc2c(C(=O)NC(C3CC3)C(F)(F)F)ncn12 (stereo not drawn); > 20%
Cc1cc(-c2csc(C#N)c2)nc2c(C(=O)NC(C3CC3)C(F)(F)F)ncn12 (stereo not drawn); > 20%

Go through the list and state activation at 0.1 µM for each entry.
1. COc1cccc(-c2cc(C)n3cnc(C(=O)N[C@H](C)C4CC4)c3n2)c1
2. Cc1cc(-c2cnsc2)nc2c(C(=O)NC(C)(C)C)ncn12
3. Cc1cc(-c2cccc(C#N)n2)nc2c(C(=O)NC(C3CC3)C(F)(F)F)ncn12 (stereo not drawn)

# output
10 to 20%
< 10%
< 10%

// batch mode: one activation at 0.1 µM value per listed entry
1. Cc1cc(-c2cccc3ncsc23)nc2c(C(=O)NC(C3CC3)C(F)(F)F)ncn12 (stereo not drawn)
2. Cc1cc(Oc2ccncc2)nc2c(C(=O)N[C@@H](C)C3CC3)ncn12
3. Cc1cc(-c2ccc3ocnc3c2)nc2c(C(=O)NC(C)C(F)(F)F)ncn12 (stereo not drawn)

# output
10 to 20%
< 10%
> 20%

* * *

Target: glucocerebrosidase (Gcase) (Homo sapiens, UniProt P04062)
Assay: Glucocerebrosidase (Gcase) activation assay, 4-methylumbelliferyl-beta-D-glucopyranoside substrate, with saposin C
Format: biochemical
Conditions: test compound at 0.1 μM; read-out: Percent Gcase Activation, 0.1 μM Test Compound
Experimental: The ability of exemplary compounds to activate glucocerebrosidase (Gcase) was measured. A 484 μL aliquot of a 1.0 mg/mL solution of phosphatidylserine (PS) (Sigma P7769) in chloroform was evaporated under a stream of nitrogen for 1 hour. The lipid film was dissolved over 4 minutes of vigorous vortexing in 40 mL of 176 mM K2HPO4/50 mM citric acid (pH 4.7) containing 7.5 μL of triton X-100, resulting in a mixed micellar preparation with a composition of 0.32 mM triton and 0.37 mol % PS. […]
endpoint: activation at 0.1 µM

COc1cccc(-c2cc(C)n3cnc(C(=O)N[C@@H](C4CC4)C(F)(F)F)c3n2)n1 [IV-14]; > 20%
Cc1cc(C)n2cnc(C(=O)N[C@@H]3[C@@H]4CC[C@H]3C[C@@H](OC(C)(C)C)C4)c2n1 [IV-11]; > 20%
Cc1cc(-c2cccc3c2OCO3)nc2c(C(=O)N[C@H](C)C3CC3)ncn12 [IV-31]; 10 to 20%
Cc1cc(-c2cccc3ncoc23)nc2c(C(=O)N[C@H](C3CC3)C(F)(F)F)ncn12 [IV-17]; > 20%
Cc1cc(-c2ccsc2C#N)nc2c(C(=O)NC(C3CC3)C(F)(F)F)ncn12 (stereo not drawn) [IV-88]; > 20%

Quick request: activation at 0.1 µM for each listed item, please.
1. COc1c(C#N)cccc1-c1cc(C)n2cnc(C(=O)NC(C)C(F)(F)F)c2n1 (stereo not drawn) [IV-66]
2. Cc1cc(-c2ccc(F)cc2C#N)nc2c(C(=O)NC(C3CC3)C(F)(F)F)ncn12 (stereo not drawn) [IV-80]
3. COc1ccc(F)c(-c2cc(C)n3cnc(C(=O)NC(C)C(F)(F)F)c3n2)c1 (stereo not drawn) [IV-104]
4. Cc1cc(-c2ccc3c(c2)OCO3)nc2c(C(=O)N[C@H](C)C(F)(F)F)ncn12 [IV-77]
5. C#CC(NC(=O)c1ncn2c(C)cc(-c3ccccc3C#N)nc12)C(F)(F)F (stereo not drawn) [IV-23]
6. Cc1cc(-c2cccc(C(N)=O)c2)nc2c(C(=O)NC(C3CC3)C(F)(F)F)ncn12 (stereo not drawn) [IV-112]

# output
1. < 10%
2. > 20%
3. > 20%
4. > 20%
5. 10 to 20%
6. 10 to 20%
